test system: Fibroblast; assay: Multiplex assay against human fibroblast; assay type: toxicity, cell-based; conditions: 12 h, 10 µM, compound concentration 10 uM, replicate 2
Quantity kind: Population Healthy Nuclei (%)
Respond numerically; units are % and should not be typed.

Can you look up the measured Population Healthy Nuclei (%) of C=CCN1C[C@H](C(=O)N(CCCN(C)C)C(=O)NCC)C[C@@H]2c3cccc4[nH]cc(c34)C[C@H]21 [CABERGOLINE] for me?
39

Can you look up the measured Population Healthy Nuclei (%) of CCn1c(-c2nc3cc(C(=O)N4CCCC(N)C4)ccc3n2C)cc2ccccc21.Cl (centres undefined) for me?
37

Can you look up the measured Population Healthy Nuclei (%) of "Cc1cc(=O)n(C)c2cc(N3C(=O)CC[C@H](NS(=O)(=O)CC(C)C)[C@H]3c3ccc(Cl)cc3)ccc12" for me?
31

Can you look up the measured Population Healthy Nuclei (%) of "Cc1cc(O)c(-c2ccc([C@@H](C)CN(C)C)cc2)c2c1[nH]c(=O)c1sccc12" for me?
55

Can you look up the measured Population Healthy Nuclei (%) of "CN1CCC(C(=O)c2cccc(NC(=O)c3c(F)cc(F)cc3F)n2)CC1" for me?
54

Can you look up the measured Population Healthy Nuclei (%) of "CCc1nn2c(C)cc(C)nc2c1Cc1ccc(-c2nnc(C3CCNCC3)o2)cc1" for me?
44

Can you look up the measured Population Healthy Nuclei (%) of "CN(C)C(=O)Cn1cc(-c2ccc(-c3nnc4ccccn34)cc2)cn1" for me?
38

Can you look up the measured Population Healthy Nuclei (%) of Cl.Cl.OCCOCCN1CCN(C(c2ccccc2)c2ccc(Cl)cc2)CC1 (centres undefined) [HYDROXYZINE HYDROCHLORIDE] for me?
47

Can you look up the measured Population Healthy Nuclei (%) of "Cc1sc2c(c1C)C(c1ccc(Cl)cc1)=N[C@H](CC(=O)OC(C)(C)C)c1nnc(C)n1-2" for me?
39

====

system: U2OS; test: Multiplex assay against U2OS; format: toxicity, cell-based; conditions: human, 12 h, 10 µM, compound concentration 10 uM, replicate 1
Non-standard residues stand in square brackets, D forms with d. Residues, ends and D or L forms follow the SMILES beside them.
Quantity kind: Population Healthy Nuclei (%)
Note to self: number, then unit, no commentary.

Can you look up the measured Population Healthy Nuclei (%) of "N[C@](CC1c2ccccc2Oc2ccccc21)(C(=O)O)[C@H]1C[C@@H]1C(=O)O" for me?
72%

Can you look up the measured Population Healthy Nuclei (%) of "COc1ccc2c(c1OCc1ccccc1)C[C@@H](C(=O)O)N(C(=O)C(c1ccccc1)c1ccccc1)C2" for me?
64%

Can you look up the measured Population Healthy Nuclei (%) of "COc1cc(C(=O)N2CC[C@@H](O)[C@@H](N)C2)cc2nc(-c3cc4ccccc4n3CC3CC3)n(C)c12.Cl" for me?
38%

Can you look up the measured Population Healthy Nuclei (%) of "COc1cc(Nc2ncc3c(n2)-c2ccc(Cl)cc2C(c2c(F)cccc2OC)=NC3)ccc1C(=O)O" for me?
57%

Can you look up the measured Population Healthy Nuclei (%) of CC(C)C[C@@H]1NC(=O)[C@@H](C(C)C)NC(=O)[C@@H]2CCCN2C(=O)[C@@H](CC(=O)O)NC(=O)[C@@H](Cc2c[nH]c3ccccc23)NC1=O [BQ-123] (cyclo(L[dW][dD]P[dV])) for me?
65%

Can you look up the measured Population Healthy Nuclei (%) of "COc1ccc2[nH]c(I)c(CCNC(C)=O)c2c1" for me?
64%

Can you look up the measured Population Healthy Nuclei (%) of COCCCN1CCC(NC(=O)c2cc(Cl)c(N)c3c2OCC3)CC1 [PRUCALOPRIDE] for me?
63%

The values you see were collected from ChEMBL document CHEMBL5058577.
